Every entry's value here was drawn from ChEMBL document CHEMBL4321805.

Species: Homo sapiens
Assay: Selectivity ratio of Ki for inhibition of alexa fluor 647-labeled kinase tracer 314 binding to recombinant human full-length N-terminal His6-tagged p110alpha/p85alpha expressed in baculovirus expression system to Ki for inhibition of alexa fluor 647-labeled kinase tracer 314 binding to recombinant human N-terminal GST-fused mTOR (1360 to 2549 residues) expressed in baculovirus expression system
Use 80 as the dividing line for Ratio Ki, with the line itself on the 1 (yes) side and lower values as 0 (no).

CC1(C)COCCN1c1nc(-c2ccc(N)nc2)nc2c1C[C@@H]1COCCN21 | 0 (no)
C[C@@H]1COCCN1c1nc(-c2ccc(N)nc2)nc2c1C[C@@H]1COCCN21 | 1 (yes)
Nc1ccc(-c2nc(N3CCOCC3)nc3c2C[C@H]2COCCN32)cn1 | 0 (no)
COc1cc(N)ncc1-c1nc2c(c(N3CCOC[C@H]3C)n1)C[C@@H]1COCCN21 | 0 (no)

Item `C[C@@H]1COCCN1c1nc(-c2cnc(N)nc2)nc2c1C[C@@H]1COCCN21` with Ratio Ki of 80 or above?
1 (yes)

###

Molecular target: mTORC1 (Homo sapiens)
Assay: Inhibition of mTORC1 in human A2058 cells assessed as reduction in ribosomal protein S6 phosphorylation at Ser235/236 residues incubated for 1 hr by Western blot analysis
Documented pIC50 across a set of molecules
Answer as the number alone; pIC50 is minus log10 of concentration in mol/L.

Nc1cc(C(F)(F)F)c(-c2nc(N3CCOCC3)c3c(n2)N2CCOC[C@@H]2C3)cn1 | 6.12
Nc1ccc(-c2nc(N3CC4CCC(C3)O4)c3c(n2)N2CCOC[C@H]2C3)cn1 | 6.80
C[C@@H]1COCCN1c1nc(-c2cnc(N)nc2)nc2c1C[C@@H]1COCCN21 | 7.26
Nc1cc(C(F)(F)F)c(-c2nc(N3CCOCC3)c3c(n2)N2CCCC[C@@H]2C3)cn1 | 5.91
C[C@@H]1COCCN1c1nc(-c2ccc(N)nc2)nc2c1C[C@@H]1COCCN21 | 7.21

Using the record for `Nc1ccc(-c2nc(N3CCOCC3)c3c(n2)N2CCOC[C@H]2C3)cn1` , report its pIC50.
7.02

Given the entry `Nc1cc(C(F)F)c(-c2nc(N3C4CCC3COC4)nc(N3C4CCC3COC4)n2)cn1` , report its measured pIC50.
7.07

Name the reported pIC50 value associated with the molecule `C[C@@H]1COCCN1c1nc(-c2ccc(N)nc2)nc2c1C[C@H]1COCCN21`
6.64

Report pIC50 for `CC1(C)COCCN1c1nc(-c2ccc(N)nc2)nc2c1C[C@@H]1COCCN21` please.
6.87

Field request: pIC50 | item: `Nc1cc(C(F)(F)F)c(-c2nc(N3CCCCC3)c3c(n2)N2CCOC[C@@H]2C3)cn1`
4.36

Please give the measured pIC50 for this molecule: `Nc1ccc(-c2nc(N3C4CCC3COC4)c3c(n2)N2CCOC[C@@H]2C3)cn1`
6.45

###

Target: PI3-kinase p110-alpha/p85-alpha (Homo sapiens, UniProt P42336)
Sequence (P27986 whole entry): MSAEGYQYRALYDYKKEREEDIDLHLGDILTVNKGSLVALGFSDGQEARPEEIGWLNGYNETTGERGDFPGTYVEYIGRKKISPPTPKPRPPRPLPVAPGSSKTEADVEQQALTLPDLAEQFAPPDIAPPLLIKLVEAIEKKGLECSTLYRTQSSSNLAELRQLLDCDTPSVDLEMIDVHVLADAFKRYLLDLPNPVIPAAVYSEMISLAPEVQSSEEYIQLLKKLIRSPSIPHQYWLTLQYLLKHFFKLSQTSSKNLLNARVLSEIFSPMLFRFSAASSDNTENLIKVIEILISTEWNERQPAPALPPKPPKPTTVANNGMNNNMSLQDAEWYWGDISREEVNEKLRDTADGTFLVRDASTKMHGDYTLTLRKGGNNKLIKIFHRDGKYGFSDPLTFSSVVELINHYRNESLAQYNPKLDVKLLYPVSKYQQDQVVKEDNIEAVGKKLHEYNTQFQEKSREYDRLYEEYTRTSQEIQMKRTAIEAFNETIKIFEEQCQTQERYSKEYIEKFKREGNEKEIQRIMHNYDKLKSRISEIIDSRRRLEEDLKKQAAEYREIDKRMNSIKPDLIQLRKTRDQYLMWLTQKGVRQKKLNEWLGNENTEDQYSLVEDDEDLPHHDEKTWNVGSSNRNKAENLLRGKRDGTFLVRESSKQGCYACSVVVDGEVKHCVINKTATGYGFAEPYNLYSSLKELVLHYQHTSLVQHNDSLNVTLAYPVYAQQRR
Sequence (P42336 whole entry): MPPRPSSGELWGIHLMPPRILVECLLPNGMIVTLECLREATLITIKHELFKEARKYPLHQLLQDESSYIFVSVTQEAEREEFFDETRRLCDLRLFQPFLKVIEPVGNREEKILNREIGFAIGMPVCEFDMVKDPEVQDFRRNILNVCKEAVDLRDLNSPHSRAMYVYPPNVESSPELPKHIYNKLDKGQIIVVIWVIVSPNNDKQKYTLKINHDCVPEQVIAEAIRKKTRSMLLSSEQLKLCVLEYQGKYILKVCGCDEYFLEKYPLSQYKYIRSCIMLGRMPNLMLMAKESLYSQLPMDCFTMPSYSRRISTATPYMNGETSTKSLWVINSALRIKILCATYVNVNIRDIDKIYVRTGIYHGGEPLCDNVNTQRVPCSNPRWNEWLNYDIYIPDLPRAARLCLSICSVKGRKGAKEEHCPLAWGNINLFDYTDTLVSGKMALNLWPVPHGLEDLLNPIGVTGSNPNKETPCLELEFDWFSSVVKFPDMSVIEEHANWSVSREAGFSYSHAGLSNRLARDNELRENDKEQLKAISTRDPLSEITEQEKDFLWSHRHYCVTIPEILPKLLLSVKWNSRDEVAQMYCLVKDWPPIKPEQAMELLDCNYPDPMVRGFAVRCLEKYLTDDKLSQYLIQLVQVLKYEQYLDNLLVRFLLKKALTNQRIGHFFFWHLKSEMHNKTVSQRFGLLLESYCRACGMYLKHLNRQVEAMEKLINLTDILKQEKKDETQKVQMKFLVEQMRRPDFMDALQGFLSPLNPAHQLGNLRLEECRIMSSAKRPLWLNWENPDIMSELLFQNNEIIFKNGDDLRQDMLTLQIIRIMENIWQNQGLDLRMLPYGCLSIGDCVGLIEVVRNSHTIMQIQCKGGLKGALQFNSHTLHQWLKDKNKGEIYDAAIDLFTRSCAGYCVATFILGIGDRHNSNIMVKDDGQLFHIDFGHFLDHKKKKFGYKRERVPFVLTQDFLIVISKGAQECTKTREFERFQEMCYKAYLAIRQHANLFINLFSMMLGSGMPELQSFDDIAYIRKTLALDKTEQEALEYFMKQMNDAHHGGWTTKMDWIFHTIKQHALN
Test: Inhibition of alexa fluor 647-labeled kinase tracer 314 binding to recombinant human full-length N-terminal His6-tagged p110alpha/p85alpha expressed in baculovirus expression system by TR-FRET assay
Entries and their measured pKi follow.
In textbook form, pKi equals minus log to base ten of the concentration in mol/L.

For orientation, consider the following solved cases.
C[C@H]1COCCN1c1nc(-c2ccc(N)nc2)nc2c1C[C@@H]1COCCN21 | 6.41
Nc1ccc(-c2nc(N3CCOCC3)nc3c2C[C@@H]2COCCN32)cn1 | 6.27
COC(OC)c1nc(N)ncc1-c1nc2c(c(N3CCOC[C@H]3C)n1)C[C@@H]1COCCN21 | 7.18
COC(OC)c1cc(N)ncc1-c1nc2c(c(N3CCOC[C@H]3C)n1)C[C@@H]1COCCN21 | 5.95

Which pKi value belongs to `C[C@H]1COCCN1c1nc(-c2ccc(N)nc2)nc2c1C[C@H]1COCCN21` ?
7.01
